This collection of values is drawn from patent US9475759B2.

TEST_SUMMARY: Test for hygroscopicity (hygroscopic weight gain)
Assay type: physicochemical
CONDITION_NOTES: 25° C., relative humidity about 70%, about 5 g sample, sampling time 12 hours
MEASURED_PARAMETER: As compared to the sample time of 0 h, weight gains %

{"MOLECULE": "CN(C)c1cc(NC(=O)CNC(C)(C)C)c(O)c2c1CC1CC3C(N(C)C)C(O)=C(C(N)=O)C(=O)C3(O)C(O)=C1C2=O.O.O (stereo not shown) [Tigecycline•2 H2O hydrate, Tigecycline.2H2O Hydrate]", "OBS_VALUE": "0.1%"}
{"MOLECULE": "CN(C)c1cc(NC(=O)CNC(C)(C)C)c(O)c2c1C[C@H]1C[C@H]3[C@H](N(C)C)C(O)=C(C(N)=O)C(=O)[C@@]3(O)C(O)=C1C2=O.CN(C)c1cc(NC(=O)CNC(C)(C)C)c(O)c2c1C[C@H]1C[C@H]3[C@H](N(C)C)C(O)=C(C(N)=O)C(=O)[C@@]3(O)C(O)=C1C2=O.O [Tigecycline•0.5 H2O hydrate, Tigecycline.0.5H2O Hydrate]", "OBS_VALUE": "0.2%"}
{"MOLECULE": "CN(C)c1cc(NC(=O)CNC(C)(C)C)c(O)c2c1C[C@H]1C[C@H]3[C@H](N(C)C)C(O)=C(C(N)=O)C(=O)[C@@]3(O)C(O)=C1C2=O [Amorphous tigecyline, tigecycline]", "OBS_VALUE": "1.3%"}
{"MOLECULE": "CN(C)c1cc(NC(=O)CNC(C)(C)C)c(O)c2c1C[C@H]1C[C@H]3[C@H](N(C)C)C(O)=C(C(N)=O)C(=O)[C@@]3(O)C(O)=C1C2=O [Tigecycline anhydride]", "OBS_VALUE": "1.4%"}
